# measurement.target: Peroxisome proliferator-activated receptor alpha (Homo sapiens)
# Sequence (Q07869 whole entry): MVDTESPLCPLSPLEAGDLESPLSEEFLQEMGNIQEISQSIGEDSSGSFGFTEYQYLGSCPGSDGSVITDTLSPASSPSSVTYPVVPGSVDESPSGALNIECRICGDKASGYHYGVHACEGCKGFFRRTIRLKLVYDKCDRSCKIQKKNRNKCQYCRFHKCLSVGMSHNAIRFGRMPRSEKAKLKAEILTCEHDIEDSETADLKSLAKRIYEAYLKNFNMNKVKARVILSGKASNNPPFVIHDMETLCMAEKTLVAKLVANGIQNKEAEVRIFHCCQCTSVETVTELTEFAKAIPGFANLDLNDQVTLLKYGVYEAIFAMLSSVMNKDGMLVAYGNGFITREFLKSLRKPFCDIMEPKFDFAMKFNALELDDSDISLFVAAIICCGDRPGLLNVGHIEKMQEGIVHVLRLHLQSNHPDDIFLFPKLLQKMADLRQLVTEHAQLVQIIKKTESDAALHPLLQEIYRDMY
# protocol.text: Agonist activity at human PPARalpha in HepG2 cells by PPAR-GAL4 transactivation assay
# Type: functional, cell-based
quantity.measured: pEC50
Lab note — pEC50 values are minus log10 of concentrations in M.

Task item: Find the measured pEC50 of CCCO/N=C(\C)C(Cc1ccc(OCCc2nc(C(C)C)oc2C)cc1)C(=O)O (centres undefined) and report it.
Reply: 8.00

Task item: Return pEC50 for the following compound: CCO/N=C(\C)C(Cc1ccc(OCCc2nc(-c3ccc(F)cc3)oc2C)cc1)C(=O)O (centres undefined)
Reply: 7.94

Task item: Assign pEC50 to the following record: C/C(=N\OCc1ccc(F)cc1)C(Cc1ccc(OCCc2nc(-c3ccccc3)oc2C)cc1)C(=O)O (centres undefined)
Reply: 7.97

Task item: Return pEC50 for the following compound: CCO/N=C(\C)C(Cc1ccc(OCc2nc(-c3ccc(F)cc3)oc2C)cc1)C(=O)O (centres undefined)
Reply: 7.92

Measured values drawn from ChEMBL document CHEMBL1143807 for this set.
